FYI, the data here is from ChEMBL document CHEMBL4610047.

- target-or-system: Acetylcholinesterase (Electrophorus electricus, UniProt O42275)
- Sequence (O42275 whole entry): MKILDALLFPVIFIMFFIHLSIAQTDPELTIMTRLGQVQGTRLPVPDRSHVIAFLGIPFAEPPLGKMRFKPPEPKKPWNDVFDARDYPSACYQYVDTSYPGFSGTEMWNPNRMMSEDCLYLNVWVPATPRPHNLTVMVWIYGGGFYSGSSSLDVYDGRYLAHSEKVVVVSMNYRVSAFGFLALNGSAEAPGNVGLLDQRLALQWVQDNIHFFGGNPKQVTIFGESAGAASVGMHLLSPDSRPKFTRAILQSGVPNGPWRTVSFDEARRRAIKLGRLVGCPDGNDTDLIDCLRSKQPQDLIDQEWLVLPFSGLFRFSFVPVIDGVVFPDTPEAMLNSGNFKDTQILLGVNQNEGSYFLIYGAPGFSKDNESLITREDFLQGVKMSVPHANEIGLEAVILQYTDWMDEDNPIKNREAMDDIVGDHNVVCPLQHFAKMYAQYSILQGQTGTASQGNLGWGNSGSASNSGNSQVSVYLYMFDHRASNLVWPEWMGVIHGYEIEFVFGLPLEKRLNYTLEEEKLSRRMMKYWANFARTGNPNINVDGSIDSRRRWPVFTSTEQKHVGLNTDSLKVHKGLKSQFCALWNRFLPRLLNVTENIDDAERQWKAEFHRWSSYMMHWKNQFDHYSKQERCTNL
- assay-name: Inhibition of electric eel AChE using acetylthiocholine iodide as substrate by Ellman's method
Catalogue of IC50 readings, one per entry.

compound: O=c1c2ccc(OCCN3CCCCC3)cc2oc2cc(OCCN3CCCCC3)cc(O)c12
IC50: 0.964 µM

compound: CN(C)CCOc1ccc2c(=O)c3c(O)cc(OCCN(C)C)cc3oc2c1
IC50: 2.47 µM

compound: O=c1c2ccc(OCCN3CCOCC3)cc2oc2cc(OCCN3CCOCC3)cc(O)c12
IC50: 31.2 µM

compound: O=c1c2ccc(OCCN3CCCC3)cc2oc2cc(OCCN3CCCC3)cc(O)c12
IC50: 0.328 µM
